Tested on: farnesylated proteins F1, F2 and F3 in Met18b-2 cells
Measurement protocol: Inhibition of intracellular farnesylation in intact Met18b-2 cells, Triton-soluble proteins F1, F2, F3
Format: cell-based, Chinese hamster
Experimental setup: Cricetulus griseus, read-out: EC 90% "B isomer"
The threshold is 30 µM. Values of EC90 beneath it are tagged Yes; values meeting or exceeding it are tagged No.

[
  {
    "Compound": "CN(C(=O)[C@@H](N)CS)C1N=C(c2ccccc2)c2cc(Cl)ccc2N(Cc2ccc(C#N)cc2)C1=O (some centres unmarked)",
    "Answer label": "Yes"
  }
]

Query: Hi there! Is EC90 for CN(C(=O)[C@@H](N)CS)C1N=C(c2ccccc2)c2cc(Cl)ccc2N(Cc2ccc(F)cc2)C1=O (some centres unmarked) below 30 µM, do you know?
Response: No

====

Test target: CAAX farnesyltransferase (Rattus norvegicus, UniProt Q02293+Q04631)
Measurement protocol: In vitro inhibition of CAAX farnesyltransferase
Experimental setup: recombinant enzyme; FIG. 1A; read-out: concentration inhibiting recombinant ras CAAX farnesyltransferase by 50%
Endpoint label: IC50 (nM)
Numbers only here, please. The scale is nM.

Query: Requested field: IC50. Item: CSCC[C@H](NC(=O)CN1C(=O)C(N(C)C(=O)[C@@H](N)CS)N=C(c2ccccc2)c2ccccc21)C(=O)O (single isomer, unassigned) [27B]
Response: 0.26

====

Test target: CAAX farnesyltransferase (Rattus norvegicus, UniProt Q02293+Q04631)
Measurement protocol: In vitro inhibition of CAAX farnesyltransferase
Format: biochemical
Design: purified to homogeneity from rat brain homogenates; from tissue; host or cells: rat brain; alternatively recombinant enzyme from a baculovirus expression system
Experimental setup: diastereomer B; Table D; read-out: EC50 (μM) "B"
Hi! Just check whether EC50 is below 0.0008 µM. Below gives T, equal or above gives F.

Check out these entries, answers already filled in.
[
  {
    "Compound": "CN(C(=O)[C@@H](N)CS)C1N=C(c2ccccc2)c2ccccc2N(CC(=O)N(CC(=O)O)Cc2ccccc2)C1=O (stereo partly shown)",
    "Test target": "CAAX farnesyltransferase (Rattus norvegicus, UniProt Q02293+Q04631)",
    "Answer label": "T"
  },
  {
    "Compound": "CSCC[C@H](NC(=O)CN1C(=O)C(N(C)C(=O)[C@@H](N)CS)N=C(c2ccccc2)c2cc(Cl)ccc21)C(=O)O (stereo partly shown)",
    "Test target": "CAAX farnesyltransferase (Rattus norvegicus, UniProt Q02293+Q04631)",
    "Answer label": "T"
  }
]

Query: A record lists CN(C(=O)[C@@H](N)CS)C1N=C(c2ccccc2)c2ccccc2N(CC(=O)N[C@@H](CS)C(=O)O)C1=O (stereo partly shown) . Is its EC50 below 0.0008 µM?
Response: F

====

Test target: Rab GG transferase (Rattus norvegicus, UniProt Q08602+Q08603)
Construct: purified Components A and B of Rab GG transferase
Sequence (Q08602 whole entry): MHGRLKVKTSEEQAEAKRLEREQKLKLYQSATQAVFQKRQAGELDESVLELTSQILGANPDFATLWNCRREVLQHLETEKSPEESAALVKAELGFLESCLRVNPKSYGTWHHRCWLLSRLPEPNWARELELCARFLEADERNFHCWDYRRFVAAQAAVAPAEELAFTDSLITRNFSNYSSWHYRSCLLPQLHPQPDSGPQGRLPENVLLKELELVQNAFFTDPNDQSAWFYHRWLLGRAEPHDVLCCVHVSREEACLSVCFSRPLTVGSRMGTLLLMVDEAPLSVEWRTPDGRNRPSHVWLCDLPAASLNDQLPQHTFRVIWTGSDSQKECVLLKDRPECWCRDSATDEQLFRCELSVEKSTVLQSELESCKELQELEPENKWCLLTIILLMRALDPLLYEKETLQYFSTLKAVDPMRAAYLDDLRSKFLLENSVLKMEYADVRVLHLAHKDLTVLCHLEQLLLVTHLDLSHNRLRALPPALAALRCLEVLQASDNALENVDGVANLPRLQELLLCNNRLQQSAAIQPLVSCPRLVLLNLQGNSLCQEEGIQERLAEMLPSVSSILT
Sequence (Q08603 whole entry): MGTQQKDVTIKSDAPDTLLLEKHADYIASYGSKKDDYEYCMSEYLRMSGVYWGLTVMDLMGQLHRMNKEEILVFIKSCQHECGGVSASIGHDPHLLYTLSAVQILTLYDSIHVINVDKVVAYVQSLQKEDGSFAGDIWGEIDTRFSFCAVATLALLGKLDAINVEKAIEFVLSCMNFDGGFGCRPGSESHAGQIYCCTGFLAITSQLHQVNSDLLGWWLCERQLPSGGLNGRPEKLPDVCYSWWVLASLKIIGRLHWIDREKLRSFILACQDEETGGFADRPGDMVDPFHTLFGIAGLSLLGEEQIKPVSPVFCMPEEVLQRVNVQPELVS
Measurement protocol: Inhibition of Rab GG transferase
Experimental setup: FIG. 1C; Rab1A substrate; read-out: IC0.5 Rab GG transferase
Endpoint label: IC50 (µM)
Answer with a number only, understood to be in µM.

Query: Find IC50 (Rab GG transferase (Rattus norvegicus, UniProt Q08602+Q08603)) for the entry CSCC[C@H](NC(=O)CN1C(=O)C(N(C)C(=O)[C@@H](N)CS)N=C(c2ccccc2)c2ccccc21)C(=O)O (single isomer, unassigned) [27B]
Response: 5.5
